Test: OD615 S. cerevisiae growth inhibition, permissive medium, pilot counter-assay, permissive growth control for S. cerevisiae lifespan shortening project (AID 705)
Conditions: OD615, 24 h, at 10 µM, active compounds read high
Hi there, I'd appreciate the recorded growth inhibition for every entry that follows.
Numbers only, in %.

Worked cases, answers included:
{"Compound": "COc1ccc(Cl)cc1N1C(=O)C2CCCN2C1c1ccccc1F (stereo unspecified)", "Reading unit": "%", "Endpoint result": 2.31}
{"Compound": "C=CCn1c(=N)n(CC(O)COc2ccc(OC)cc2)c2ccccc21 (stereo unspecified)", "Reading unit": "%", "Endpoint result": -10.9}

Please report growth inhibition for every entry that follows.
1. Cc1ccc(-c2nnc(SCC(=O)Nc3ccccc3F)o2)cc1
2. O=C(Nc1nccs1)C1CCN(S(=O)(=O)c2cccnc2)CC1

1. -11.9
2. -4.93

Provide growth inhibition for all items below, preserving their order.
1. c1ccc(Cn2ncc3ccccc32)cc1
2. Cn1c(NC(=O)CCC2CCCCC2)cc(=O)n(C)c1=O

1. -3.05
2. -1.97

###

Assignment: determine reported viability for the given compounds.
Assay: growth suppression of beta-catenin knockout HCT116, pilot screen, human colon tumor cells (AID 823);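 also: 0% = wells killed by 20 µM Hyamine and 100% = untreated DMSO cell wells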
Details: CellTiter-Glo, 60 h, at 10 µM, active compounds read low
Records with an inconclusive call do not appear.
Numbers only, in %.

Below, each entry is followed by its recorded viability result.
{"Compound": "CCOC(=O)N1CCN(c2cc(C)nc3nc(C)nn23)CC1", "Reading unit": "%", "viability": 105}
{"Compound": "CC1(C)CCCC2=C1CC1C(=O)N(O)C(=O)C1C2 (stereo unspecified)", "Reading unit": "%", "viability": 102}
{"Compound": "Cn1c(=O)c2c(nc(SCc3cc4c(cc3Cl)OCO4)n2C)n(C)c1=O", "Reading unit": "%", "viability": 99.6}

I have 3 compounds here; please give me viability for each one.
1. COc1cc(C(c2sc3nc(C)nn3c2O)N2CC(C)OC(C)C2)cc(OC)c1OC (stereo unspecified)
2. O=C(CC1Sc2ncnn2C1=O)Nc1ccc(Br)cc1 (stereo unspecified)
3. Cc1cccc(C2CC(c3ccc(F)cc3)Nc3nc(N)nn32)c1 (stereo unspecified)

1. 93.6
2. 106
3. 92.3

###

Please respond with reported growth inhibition for every item in the list.
Assay: Restrictive medium S. cerevisiae growth inhibition, OD615, pilot screen of yeast lifespan reduction project, restrictive growth control (AID 706);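 also: modified DeaD lifespan yeast strain shifted to restrictive glucose medium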
Settings: OD615, 48 h, at 10 µM, active compounds read high
Numbers only, in %.

{"Compound": "O=C1CCCCCN1Cc1nnc(SCc2nc3ccccc3s2)n1-c1ccccn1", "Endpoint result": 19.8}
{"Compound": "O=C(O)c1ccccc1C(=O)NCc1ccccc1", "Endpoint result": -15.6}
{"Compound": "CC1=C(C(=O)OC(C)C)C(c2cccs2)n2ncnc2N1 (configuration not stated)", "Endpoint result": 7.93}
{"Compound": "COc1ccc(OCC(O)CN2CCCCC2)cc1 (configuration not stated)", "Endpoint result": -11.1}
{"Compound": "Cn1ccnc1SCc1cn2cc(Br)ccc2n1", "Endpoint result": 22.2}

Working through the 2 compounds below one at a time, give growth inhibition for each.
1. c1ccc(CNc2ncnc3c2ncn3C2CCCCO2)cc1 (configuration not stated)
2. CCOC(=O)C1=C(C)N=c2s/c(=C\C(=O)OC)c(=O)n2C1c1ccc(OC)cc1 (configuration not stated)

-8.96
11.6

For each of the compounds below, note its growth inhibition.
1. COc1ccc(S(=O)(=O)Cc2ccc(C(=O)N3CCC(C(N)=O)CC3)o2)cc1
2. CCOc1ccc(C2C(C(=O)NC)=C(C)Nc3nc4ccccc4n32)cc1OC (configuration not stated)
3. CCc1ccc(C2CC(c3ccccc3Cl)Nc3nc(N)nn32)cc1 (configuration not stated)
4. Cn1c(C(=O)NCCc2c[nH]c3ccccc23)cc2sccc21
5. CCCCNC(=O)CS(=O)Cc1nc(-c2ccc(C)cc2)oc1C (configuration not stated)

0.07
-0.94
26.1
12.7
0.83

###

Assay: inhibitors of the yeast RAM network, pilot screen, dse1pr::URA3 reporter, 5-FOA selection (AID 869);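 also: 0% = DMSO wells with no growth and 100% = 10 µM 1-NA-PP1 with full growth; RAM network block rescues cells from 5-FOA so hits raise OD615 growth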
Conditions: S. cerevisiae dse1pr::URA3 5-FOA growth, OD615, 2 d; at 10 µM; active compounds read high; strain carries analog-sensitive mutant Cbk1 kinase
Activity calls are given as the source filed them.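 The calls were made as follows: active = inhibition over a set limit, the all-compound mean plus 3 SD, in both replicate runs; inconclusive = over that limit in just one replicate run; inactive = at or under that limit in both runs.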
Could you please report measured inhibition for the items listed next?

Below are worked cases with known answers.
{"Compound": "CCCCNC(=O)Nc1ccc(Br)cn1", "inhibition": "0.485% (inactive)"}
{"Compound": "Cc1ccc(-c2nc(CS(=O)CC(=O)NCc3ccccc3)c(C)o2)cc1 (configuration not stated)", "inhibition": "0.175% (inactive)"}
{"Compound": "CCCCS(=O)CC(COCc1ccccc1)OC(=O)CSc1nc(C)cc(C)n1 (configuration not stated)", "inhibition": "0.95% (inactive)"}
{"Compound": "Cn1c(=O)c2c(nc(CN3CCCCC3)n2Cc2c(F)cccc2Cl)n(C)c1=O", "inhibition": "3.12% (inactive)"}
{"Compound": "COC(=O)c1ccsc1NC(=O)C1=COCCO1", "inhibition": "0.91% (inactive)"}
{"Compound": "O=C(c1cnn2c(C(F)(F)F)cc(-c3ccco3)nc12)N1CCCCCC1", "inhibition": "0.705% (inactive)"}
{"Compound": "CC1CCCCN1S(=O)(=O)c1coc(C(N)=O)c1 (configuration not stated)", "inhibition": "3% (inactive)"}
{"Compound": "COc1ccc(N(CC(=O)NCc2cccs2)S(=O)(=O)c2c(C)nn(C)c2C)cc1", "inhibition": "0.535% (inactive)"}
{"Compound": "COc1ccc(-n2c(Cc3cccn3C)nnc2SCC(=O)N2CCC(C)CC2)cc1", "inhibition": "1.42% (inactive)"}
{"Compound": "O=C(c1nnc(Cc2ccc(Cl)cc2)o1)N1CCOCC1", "inhibition": "1.23% (inactive)"}

// each listed compound needs a value for inhibition
1. CC(=O)Nc1c2c(nn1-c1cccc(Cl)c1)CS(=O)C2 (configuration not stated)
2. CCCCSc1nc(N)c(NC(=O)c2ccco2)c(=O)[nH]1
3. CC1CCCN(c2ncnc3c2cnn3-c2ccc(Cl)cc2)C1 (configuration not stated)
4. CSc1cc(/C=N/O)c(SC)s1

["1.38% (inactive)", "1.58% (inactive)", "-1.04% (inactive)", "0.395% (inactive)"]

Give one value of inhibition per listed compound.
1. COc1ccccc1N1C(=O)C2CC=CC(C)C2C1=O (configuration not stated)
2. Cn1c(Cn2c(=O)sc3ccccc32)nnc1SCC(=O)Nc1cccc(Cl)c1
3. O=C(COC(=O)C1(c2ccccc2F)CCCC1)N1CCN(C(=O)c2ccco2)CC1
4. COc1ccccc1C(=O)n1nc(-c2cccnc2)nc1N
5. O=C1Nc2cc(Cl)cnc2N2CCCC12 (configuration not stated)

0.52% (inactive)
2.58% (inactive)
0.995% (inactive)
2.24% (inactive)
0.905% (inactive)

###

Experiment: inhibitors of the yeast RAM network, pilot screen, dse1pr::URA3 reporter, 5-FOA selection (AID 869);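 also: 0% = DMSO wells with no growth and 100% = 10 µM 1-NA-PP1 with full growth; RAM network block rescues cells from 5-FOA so hits raise OD615 growth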
Settings: S. cerevisiae dse1pr::URA3 5-FOA growth, OD615, 2 d; at 10 µM; active compounds read high; strain carries analog-sensitive mutant Cbk1 kinase
Observation type: inhibition (%)
Answers are plain numbers, in %.

Below, 5 molecules whose answers are already recorded.
{"Molecule": "CCn1cc(SCC(=O)NCc2ccc3c(c2)OCO3)c2ccccc21", "Endpoint result": 0.495}
{"Molecule": "CCn1c(-c2ccc(N)cc2)nc2ccccc21", "Endpoint result": 1.18}
{"Molecule": "Cc1cccc(CC(=O)Nc2cc(=O)n(C)c(=O)n2C)c1", "Endpoint result": 1.84}
{"Molecule": "CCOC(=O)CSc1nc2ccccc2c(=O)[nH]1", "Endpoint result": 1.74}
{"Molecule": "CN(CCNC(=O)C1(O)c2ccccc2NC(=O)N1c1ccccc1)Cc1ccccc1 (stereo unspecified)", "Endpoint result": 0.43}

Looking for the measured inhibition of `Cc1ccc(S(=O)(=O)N(C)Cc2nc(-c3ccc(Br)cc3)no2)cc1` , can you help?
2.72

###

Assay: inhibitors of the yeast RAM network, pilot screen, dse1pr::URA3 reporter, 5-FOA selection (AID 869);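 also: 0% = DMSO wells with no growth and 100% = 10 µM 1-NA-PP1 with full growth; RAM network block rescues cells from 5-FOA so hits raise OD615 growth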
Conditions: S. cerevisiae dse1pr::URA3 5-FOA growth, OD615, 2 d; at 10 µM; active compounds read high; strain carries analog-sensitive mutant Cbk1 kinase
So basically: inhibition at 1% or higher? That is class 1. Lower than 1%? That is class 0.

These solved cases illustrate the format of a correct answer.
{"Compound": "Cc1nc2sc(C(c3cccs3)N3CCN(c4ccccc4)CC3)c(O)n2n1 (stereo unspecified)", "Class assignment": "class 1"}
{"Compound": "Cc1cnc(C(=O)OCC(=O)Nc2cc(Cl)cc(Cl)c2)cn1", "Class assignment": "class 1"}
{"Compound": "Cc1ccc(Cn2nnc3c(=O)n(Cc4ccccc4C)cnc32)cc1", "Class assignment": "class 1"}
{"Compound": "CCOCC(=O)NCc1ccc2c(c1)cc(C)n2C", "Class assignment": "class 0"}
{"Compound": "N#CC1(c2ccccc2)CCCN1C(=O)c1ccco1 (stereo unspecified)", "Class assignment": "class 1"}

Shift focus to the following entry.
Say whether `CCSc1nnc(NC(=O)c2ccccc2)s1` shows inhibition of 1% or more.
class 1
